Below is a list of entries, each paired with its recorded AC50 value.
- system under test: Glucocorticoid receptor (Homo sapiens, UniProt P04150); also: assay procedure not described here
- Sequence (P04150 whole entry): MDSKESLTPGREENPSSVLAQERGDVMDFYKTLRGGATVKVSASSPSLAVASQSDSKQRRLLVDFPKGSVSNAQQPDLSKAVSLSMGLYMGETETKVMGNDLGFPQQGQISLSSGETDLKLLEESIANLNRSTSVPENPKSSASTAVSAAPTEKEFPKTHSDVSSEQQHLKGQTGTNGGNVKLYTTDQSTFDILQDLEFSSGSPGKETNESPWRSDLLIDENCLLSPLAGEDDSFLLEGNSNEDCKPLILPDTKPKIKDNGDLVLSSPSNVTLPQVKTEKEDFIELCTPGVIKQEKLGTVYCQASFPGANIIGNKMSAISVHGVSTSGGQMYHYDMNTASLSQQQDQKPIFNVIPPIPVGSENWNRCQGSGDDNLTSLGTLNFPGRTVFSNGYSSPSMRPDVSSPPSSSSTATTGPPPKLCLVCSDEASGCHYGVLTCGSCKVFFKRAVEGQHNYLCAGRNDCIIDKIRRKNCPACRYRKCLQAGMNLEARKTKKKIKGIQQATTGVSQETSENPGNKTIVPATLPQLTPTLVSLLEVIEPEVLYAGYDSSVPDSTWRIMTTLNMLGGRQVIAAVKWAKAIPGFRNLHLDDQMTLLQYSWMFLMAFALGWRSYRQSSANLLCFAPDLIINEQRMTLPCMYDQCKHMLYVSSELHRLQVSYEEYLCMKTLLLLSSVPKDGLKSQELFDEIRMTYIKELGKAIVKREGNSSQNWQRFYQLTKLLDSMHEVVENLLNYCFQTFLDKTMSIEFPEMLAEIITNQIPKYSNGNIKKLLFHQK
- Type: functional

Use these answered entries as a reference point.
Clc1ccc(Cn2c(CN3CCCC3)nc3ccccc32)cc1 [CLEMIZOLE] = > 30 µM
C[C@]12C=CC(=O)C=C1CC[C@H]1[C@@H]3C[C@@H](O)[C@](O)(C(=O)CO)[C@@]3(C)C[C@H](O)[C@@]12F [TRIAMCINOLONE] = > 30 µM

Consider the record given below.
Input line: For the compound shown here, S=P(N1CC1)(N1CC1)N1CC1 [THIOTEPA] , give the reported AC50.
Output line: > 30 µM

----------
Reported AC50 values, Neuropeptide Y receptor type 1 (Homo sapiens).

Use these answered entries as a reference point.
O=C1OC(OC(=O)c2cccnc2Nc2cccc(C(F)(F)F)c2)c2ccccc21 (centres undefined) [TALNIFLUMATE] = > 30 µM
CCN1CC(CCN2CCOCC2)C(c2ccccc2)(c2ccccc2)C1=O (centres undefined) = > 30 µM
Cc1cc(C)nc(NS(=O)(=O)c2ccc(N)cc2)n1 = > 10 µM
C[N+]12CCC(CC1)C(OC(=O)C(O)(c1ccccc1)c1ccccc1)C2 (centres undefined) = > 30 µM
CN(CCOc1ccc(CC2SC(=O)NC2=O)cc1)c1ccccn1 (centres undefined) = > 30 µM
CNCCc1ccc(OC(=O)C(C)C)c(OC(=O)C(C)C)c1 = > 30 µM
CN(C)C/C=C/C(=O)Nc1cc2c(Nc3ccc(F)c(Cl)c3)ncnc2cc1O[C@H]1CCOC1 = > 30 µM
CCCNC(=O)NS(=O)(=O)c1ccc(Cl)cc1 [CHLORPROPAMIDE] = > 30 µM

Consider the record given below.
Input line: For the compound shown here, COC(=O)[C@H]1[C@H]2C[C@@H]3c4[nH]c5cc(OC)ccc5c4CCN3C[C@H]2C[C@@H](OC(=O)c2cc(OC)c(OC)c(OC)c2)[C@@H]1OC , give the reported AC50.
Output line: > 10 µM

----------
Reported AC50 values, Sodium-dependent noradrenaline transporter (Homo sapiens).

CCOC(=O)[C@@H](N)Cc1ccc(-c2cc(O[C@H](c3ccc(Cl)cc3-n3ccc(C)n3)C(F)(F)F)nc(N)n2)cc1 = 16 µM
O=C1OC(OC(=O)c2cccnc2Nc2cccc(C(F)(F)F)c2)c2ccccc21 (stereo not drawn) [TALNIFLUMATE] = > 30 µM
COc1ccccc1OC1(C)OC(=O)c2ccccc2O1 (stereo not drawn) = > 30 µM
CC(=O)O[C@]1(C(C)=O)CC[C@H]2[C@@H]3C=C(Cl)C4=CC(=O)[C@@H]5C[C@@H]5[C@]4(C)[C@H]3CC[C@@]21C [CYPROTERONE ACETATE] = > 30 µM
Cc1cc(C)nc(NS(=O)(=O)c2ccc(N)cc2)n1 = > 10 µM

Input line: Give AC50 (Sodium-dependent noradrenaline transporter (Homo sapiens)) of the following compound: CN1CCN=C(c2ccccc2)c2cc(Cl)ccc21
Output line: > 30 µM

Input line: Follow-up item: CC(C)C[C@H](NC(=O)[C@@H](O)[C@H](N)Cc1ccccc1)C(=O)O
Output line: > 30 µM

Input line: Follow-up item: CCCCCCCN(CC)CCCC(O)c1ccc(NS(C)(=O)=O)cc1 (stereo not drawn) [IBUTILIDE]
Output line: > 30 µM

----------
- system under test: 5-hydroxytryptamine receptor 2A (Homo sapiens, UniProt P28223); also: assay procedure not described here
- Sequence (P28223 whole entry): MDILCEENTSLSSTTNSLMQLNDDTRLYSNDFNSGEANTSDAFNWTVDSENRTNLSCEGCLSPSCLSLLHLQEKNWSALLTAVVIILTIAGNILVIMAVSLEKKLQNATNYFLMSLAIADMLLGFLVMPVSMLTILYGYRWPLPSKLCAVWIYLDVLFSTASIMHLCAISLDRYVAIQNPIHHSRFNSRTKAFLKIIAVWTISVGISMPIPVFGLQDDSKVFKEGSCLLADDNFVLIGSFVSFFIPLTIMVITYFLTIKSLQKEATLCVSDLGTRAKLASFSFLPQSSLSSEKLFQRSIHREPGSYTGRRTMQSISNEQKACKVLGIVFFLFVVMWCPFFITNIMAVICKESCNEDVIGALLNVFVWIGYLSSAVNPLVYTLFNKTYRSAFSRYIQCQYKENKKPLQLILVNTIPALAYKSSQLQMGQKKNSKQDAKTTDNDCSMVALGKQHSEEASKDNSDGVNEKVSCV
- Type: functional, cell-based
Below is a list of entries, each paired with its recorded AC50 value.

Use these answered entries as a reference point.
Cc1ccccc1-n1c(CF)nc2ccc(N)cc2c1=O = > 10 µM
CCCN1CCCC[C@H]1C(=O)Nc1c(C)cccc1C = > 30 µM
C[C@]12C=CC(=O)C=C1CC[C@@H]1[C@@H]2CC[C@]2(C)OC(=O)CC[C@@H]12 = > 30 µM

Input line: For the compound shown here, CC1=C(C(=O)OC(C)C)C(c2cccc([N+](=O)[O-])c2)C(C(=O)OC2CN(C(c3ccccc3)c3ccccc3)C2)=C(N)N1 (stereo not drawn) , give the reported AC50.
Output line: > 30 µM

Input line: Follow-up item: O=C1OC(OC(=O)c2cccnc2Nc2cccc(C(F)(F)F)c2)c2ccccc21 (stereo not drawn) [TALNIFLUMATE]
Output line: > 30 µM

Input line: Follow-up item: CC(C)NC(=N)NC(=N)Nc1ccc(Cl)c(Cl)c1
Output line: > 30 µM

Input line: Follow-up item: Clc1ccc(CCC(Cn2ccnc2)Sc2c(Cl)cccc2Cl)cc1 (stereo not drawn)
Output line: > 30 µM

Input line: Follow-up item: C=C1c2cccc(O)c2C(=O)C2=C(O)[C@]3(O)C(=O)C(C(N)=O)=C(O)[C@@H](N(C)C)[C@@H]3[C@@H](O)[C@H]12
Output line: > 10 µM

----------
Reported AC50 values, Kappa-type opioid receptor (Homo sapiens, UniProt P41145).

Input line: For the compound shown here, CNCCc1ccc(OC(=O)C(C)C)c(OC(=O)C(C)C)c1 , give the reported AC50.
Output line: > 30 µM

Input line: Follow-up item: Cc1nnc(SCC2=C(C(=O)O)N3C(=O)[C@@H](NC(=O)Cn4cnnn4)[C@H]3SC2)s1
Output line: > 30 µM

Input line: Follow-up item: COC(=O)C1=C(C)NC(C)=C(C(=O)OCCN2CCN(C(c3ccccc3)c3ccccc3)CC2)C1c1cccc([N+](=O)[O-])c1 (stereo not drawn)
Output line: 7.9 µM

Input line: Follow-up item: C[C@@H]1C[C@H]2[C@@H]3C[C@H](F)C4=CC(=O)C=C[C@]4(C)[C@@]3(F)[C@@H](O)C[C@]2(C)[C@@]1(OC(=O)c1ccco1)C(=O)SCF [FLUTICASONE FUROATE]
Output line: > 10 µM

Input line: Follow-up item: CC(C)[C@@H](C)/C=C/[C@@H](C)[C@H]1CC[C@H]2/C(=C/C=C3\C[C@@H](O)CC[C@@H]3C)CCC[C@]12C [DIHYDROTACHYSTEROL]
Output line: > 10 µM

Input line: Follow-up item: COc1ccc2cc(CCC(C)=O)ccc2c1
Output line: > 10 µM

Input line: Follow-up item: CCOC(=O)c1ccc(C#Cc2ccc3c(c2)C(C)(C)CCS3)nc1
Output line: > 10 µM

Input line: Follow-up item: CN(Cc1cnc2nc(N)nc(N)c2n1)c1ccc(C(=O)N[C@@H](CCC(=O)O)C(=O)O)cc1 [METHOTREXATE]
Output line: > 10 µM

Input line: Follow-up item: Oc1ccc(CCNCCCCCCNCCc2ccccc2)cc1O
Output line: 4.3 µM

Input line: Follow-up item: O=C(c1cc(Cc2n[nH]c(=O)c3ccccc23)ccc1F)N1CCN(C(=O)C2CC2)CC1
Output line: > 10 µM

Input line: Follow-up item: O=C(/C=C/c1cccc(S(=O)(=O)Nc2ccccc2)c1)NO
Output line: > 10 µM

Input line: Follow-up item: CC(C)(C)NCC(O)c1ccccc1Cl (stereo not drawn)
Output line: > 30 µM

Input line: Follow-up item: CC(=O)Nc1ccc(CC(=O)O)cc1
Output line: > 30 µM

Input line: Follow-up item: Oc1cc(O)c(Cl)cn1
Output line: > 30 µM

Input line: Follow-up item: C[N+](C)(C)CCOP(=O)(O)OP(=O)([O-])OC[C@H]1O[C@@H](n2ccc(N)nc2=O)[C@H](O)[C@@H]1O
Output line: > 30 µM

Input line: Follow-up item: O=C(CCCN1CCC(O)(c2ccc(Br)cc2)CC1)c1ccc(F)cc1
Output line: 10 µM

Input line: Follow-up item: CCOC(=O)[C@@H](N)Cc1ccc(-c2cc(O[C@H](c3ccc(Cl)cc3-n3ccc(C)n3)C(F)(F)F)nc(N)n2)cc1
Output line: > 30 µM

Input line: Follow-up item: COC(=O)[C@H]1[C@H]2C[C@@H]3c4[nH]c5cc(OC)ccc5c4CCN3C[C@H]2C[C@@H](OC(=O)c2cc(OC)c(OC)c(OC)c2)[C@@H]1OC
Output line: 11.7 µM

Input line: Follow-up item: CCC1(CCC(C)C)C(=O)NC(=O)NC1=O
Output line: > 10 µM

Input line: Follow-up item: CO[C@H]1C[C@H](O[C@H]2CC[C@@]3(C)[C@H](CC[C@@H]4[C@@H]3CC[C@]3(C)[C@@H](C5=CC(=O)OC5)[C@@H](OC(C)=O)C[C@]43O)C2)O[C@@H](C)[C@@H]1O
Output line: > 30 µM

----------
Reported AC50 values, Motilin receptor (Homo sapiens).

CC1=C(/C=C/C(C)=C/C=C/C(C)=C/CO)C(C)(C)CCC1 [RETINOL] = > 10 µM
CN(C)C/C=C/C(=O)Nc1cc2c(Nc3ccc(F)c(Cl)c3)ncnc2cc1O[C@H]1CCOC1 [AFATINIB] = > 30 µM
Oc1cc(O)c(Cl)cn1 = > 30 µM
C=CC[N+]1([C@H]2C[C@H]3[C@@H]4CC[C@H]5C[C@H](O)[C@@H](N6CCOCC6)C[C@]5(C)[C@H]4CC[C@]3(C)[C@H]2OC(C)=O)CCCC1 [ROCURONIUM] = > 30 µM
Cc1nc(Nc2ncc(C(=O)Nc3c(C)cccc3Cl)s2)cc(N2CCN(CCO)CC2)n1 [DASATINIB] = > 30 µM

Input line: For the compound shown here, O=C(c1cc(Cc2n[nH]c(=O)c3ccccc23)ccc1F)N1CCN(C(=O)C2CC2)CC1 [OLAPARIB] , give the reported AC50.
Output line: > 30 µM
